molecular target: STK17A (human) (UniProt Q9UEE5); assay: radiometric filter-binding kinase assay, Kinase HotSpot; conditions: compound 0.5 µM; ATP 10 µM
Sequence (Q9UEE5 whole entry, looked up): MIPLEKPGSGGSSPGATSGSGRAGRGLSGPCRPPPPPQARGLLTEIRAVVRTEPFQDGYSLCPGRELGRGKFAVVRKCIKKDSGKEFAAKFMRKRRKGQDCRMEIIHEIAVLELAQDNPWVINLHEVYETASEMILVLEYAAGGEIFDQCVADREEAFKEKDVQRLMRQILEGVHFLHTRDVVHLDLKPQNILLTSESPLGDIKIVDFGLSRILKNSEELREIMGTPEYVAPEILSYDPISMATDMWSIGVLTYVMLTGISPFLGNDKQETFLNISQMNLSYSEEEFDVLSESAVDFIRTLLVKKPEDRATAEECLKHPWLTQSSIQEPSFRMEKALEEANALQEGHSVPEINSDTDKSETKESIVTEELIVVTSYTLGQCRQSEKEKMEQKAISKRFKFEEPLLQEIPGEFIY
Values of residual activity greater than or equal to 90% map to satisfied; values below map to not satisfied.

Below are worked cases with known answers.
Q: Please check the record Cc1[nH]c(/C=C2\C(=O)Nc3ccc(S(=O)(=O)N(C)c4cccc(Cl)c4)cc32)c(C)c1C(=O)N1CCN(C)CC1 and state if its residual activity is at or above 90%.
Ans: satisfied

Q: Please check the record CCN(CC)CCNC(=O)c1c(C)[nH]c(/C=C2\C(=O)Nc3ccc(F)cc32)c1C and state if its residual activity is at or above 90%.
Ans: not satisfied

Q: Please check the record O=c1cc(N2CCOCC2)oc2c1ccc1ccccc12 and state if its residual activity is at or above 90%.
Ans: satisfied

***
Q: Please check the record COc1ccc(COc2ccc(Cc3cnc(N)nc3N)cc2OC)cc1 and state if its residual activity is at or above 90%.
Ans: satisfied

Q: Please check the record COc1ccc2c(c[n+](C)c3c4cc5c(cc4ccc23)OCO5)c1OC and state if its residual activity is at or above 90%.
Ans: satisfied

Q: Please check the record N#CC(C#N)=C(N)/C(C#N)=C/c1ccc(O)cc1 and state if its residual activity is at or above 90%.
Ans: not satisfied

Q: Please check the record CNC(=O)c1cc(Oc2ccc(NC(=O)Nc3ccc(Cl)c(C(F)(F)F)c3)cc2)ccn1 and state if its residual activity is at or above 90%.
Ans: satisfied

Q: Please check the record Cc1ccc(NC2=CC(=O)c3sc(C)nc3C2=O)cc1 and state if its residual activity is at or above 90%.
Ans: satisfied

Q: Please check the record O=C(Nc1cccc(Nc2nccc(Nc3cccc(C(F)(F)F)c3)n2)c1)C1CC1 and state if its residual activity is at or above 90%.
Ans: satisfied

Q: Please check the record Cc1ccc(S(=O)(=O)/C=C/C#N)cc1 and state if its residual activity is at or above 90%.
Ans: satisfied

Q: Please check the record Nc1cccc(-c2cc3c(Oc4cccc(O)c4)ncnc3[nH]2)c1 and state if its residual activity is at or above 90%.
Ans: satisfied

Q: Please check the record O=S(=O)(c1cccc2cnccc12)N1CCCNCC1 and state if its residual activity is at or above 90%.
Ans: satisfied

Q: Please check the record CC#CC(=O)Nc1cc2c(Nc3ccc(F)c(Cl)c3)ncnc2cn1 and state if its residual activity is at or above 90%.
Ans: satisfied

Q: Please check the record Nc1ncnc2c1c(-c1ccc(Oc3ccccc3)cc1)cn2C1CCCC1 and state if its residual activity is at or above 90%.
Ans: satisfied

Q: Please check the record Nc1ccc2ncnc(NCCc3ccc(Oc4ccccc4)cc3)c2c1 and state if its residual activity is at or above 90%.
Ans: satisfied

Q: Please check the record O=C1NC(=O)c2c1c1c3ccccc3n3c1c1c2c2ccccc2n1C1CCC3O1 and state if its residual activity is at or above 90%.
Ans: not satisfied

Q: Please check the record O=C1Nc2ccc(Cl)cc2/C1=C/c1cc(Cl)c(O)c(Cl)c1 and state if its residual activity is at or above 90%.
Ans: not satisfied

Q: Please check the record N#C/C(=C(/N)Sc1ccc(N)cc1)c1ccccc1C(F)(F)F and state if its residual activity is at or above 90%.
Ans: not satisfied

Q: Please check the record CO[C@H]1CC2CC[C@@H](C)[C@@](O)(O2)C(=O)C(=O)N2CCCC[C@H]2C(=O)OC([C@H](C)C[C@@H]2CC[C@@H](O)[C@H](OC)C2)CC(=O)[C@H](C)/C=C(\C)[C@@H](O)[C@@H](OC)C(=O)[C@H](C)C[C@H](C)/C=C/C=C/C=C/1C (stereo not given in full) and state if its residual activity is at or above 90%.
Ans: satisfied
